assay.comment: Pharmacokinetics in Sprague Dawley rats, repeat oral administration for 15 days
Format: in vivo, rat
cond: male, Sprague-Dawley, rat, plasma, po, 1 mg/kg, SD rats, oral gavage once daily, Day 15, 1 mg/kg, Male, n = 4
property.name: Cmax (µg/mL)

>>> quantitative_readout("N#Cc1ccc(N2CCC[C@@H]2[C@@H](O)C(F)(F)F)cc1C(F)(F)F")
0.052

* * *

assay.comment: Pharmacokinetics in orchidectomized male rats (plasma, Day 14)
Assay type: in vivo
cond: rat, ORX male rats, PO, Day 14, 0.03 mg/kg
property.name: Cmax

>>> result("N#Cc1ccc(N2CCC[C@@H]2[C@@H](O)C(F)(F)F)cc1C(F)(F)F")
"1 ng/mL"
